// pIC50 lookup, one value per entry
subject.of.test: human LPA1 (Homo sapiens)
Construct: expressed in transfected cells; host or cells: CHO-K1
Sequence (Q92633 whole entry): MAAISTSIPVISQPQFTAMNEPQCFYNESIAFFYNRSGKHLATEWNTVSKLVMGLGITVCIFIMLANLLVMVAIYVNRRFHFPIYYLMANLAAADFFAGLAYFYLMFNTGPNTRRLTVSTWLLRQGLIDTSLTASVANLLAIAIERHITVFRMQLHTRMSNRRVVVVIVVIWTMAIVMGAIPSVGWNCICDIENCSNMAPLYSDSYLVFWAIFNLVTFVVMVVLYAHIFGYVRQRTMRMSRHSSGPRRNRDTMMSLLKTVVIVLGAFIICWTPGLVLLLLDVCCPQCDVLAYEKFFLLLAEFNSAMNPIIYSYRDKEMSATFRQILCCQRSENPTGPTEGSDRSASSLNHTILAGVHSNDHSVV
experiment.summary: In vitro LPA1 calcium flux antagonist assay - Bioduro protocol
Assay type: cell-based
stated.conditions: Table B3; CHO-K1 cells overexpressing human LPA1 and G15a, LPA challenge at EC80; read-out: Activity (IC50 class)
pIC50: −log10 of the molar value.
quantity.measured: pIC50

                                    molecule            subject_of_test  reported_value
 0  CCOC1CC(Nc2ccc(-c3cc(OC)c(C)c(OC)c3C)c(COC3CCCC3)c2)(C(=O)O)C1 (stereo not shown) [Compound 213]  human LPA1 (Homo sapiens)          > 7.00
 1  COc1cc(OC)cc(-c2ccc(NC3(C(=O)O)CCOCC3)cc2COC2COc3ccccc32)c1 (single isomer, unassigned) [Compound 158]  human LPA1 (Homo sapiens)          > 7.00
 2  O=C(O)C1(Nc2ccc(-c3cccc(OC4CC4)c3C(F)F)c(COC3CC3)c2)CCOCC1  human LPA1 (Homo sapiens)          > 7.00
 3  COc1cc(OC)cc(-c2ccc(NC3(C(=O)O)CCOCC3)cc2CCN2CCCC2=O)c1  human LPA1 (Homo sapiens)          < 6.00
 4  COC(=O)N1CCC(Nc2ccc(-c3cc(OC)cc(OC)c3)c(COC3CCCC3)c2)(C(=O)O)CC1  human LPA1 (Homo sapiens)    6.00 to 7.00
 5  COc1cc(-c2ccc(NC3(C(=O)O)CCOCC3)cc2COC2CCCC2)cc(OC)c1C  human LPA1 (Homo sapiens)          > 7.00
 6  CCOc1cccc(-c2ccc(NC3(C(=O)O)CCOCC3)cc2COC2CC2)c1C(F)F  human LPA1 (Homo sapiens)          > 7.00
 7  COc1cc(OC)c(C(F)F)c(-c2ccc(NC3(C(=O)O)CCOCC3)cc2COC2CCCC2)c1  human LPA1 (Homo sapiens)          > 7.00
 8  COc1cc(-c2ccc(NC3(C(=O)O)CCOCC3)cc2COC2CCCC2)c(C(F)F)c(OC)c1C  human LPA1 (Homo sapiens)          > 7.00
 9  COCc1cccc(-c2ccc(NC3(C(=O)O)CCOCC3)cc2COC2CC2)c1C(F)F  human LPA1 (Homo sapiens)    6.00 to 7.00
10  COc1cc(-c2ccc(NC3(C(=O)O)CCC3)cc2COC2Cc3ccccc3C2)cc(OC)c1C  human LPA1 (Homo sapiens)    6.00 to 7.00
11  CCCCOCc1cc(NC2(C(=O)O)CCOCC2)ccc1-c1cc(OC)cc(OCC)c1F  human LPA1 (Homo sapiens)          > 7.00
12  COc1cc(-c2ccc(NC3(C(=O)O)CCOCC3)cc2COC2CCC2)c(F)c(OC)c1C  human LPA1 (Homo sapiens)          > 7.00
13  CCOc1c(C)ncc(-c2ccc(NC3(C(=O)O)CC(F)(F)C3)cc2COC2CC2)c1C  human LPA1 (Homo sapiens)    6.00 to 7.00
14  COc1cc(-c2ccc(NC3(C(=O)O)CCOCC3)cc2COC2CCCC2)c2c(c1C)OCC2  human LPA1 (Homo sapiens)          > 7.00
15  COC(=O)N1CCCC(Nc2cc(C)c(-c3cc(OC)cc(OC)c3)c(COC3CCCC3)c2)(C(=O)O)C1 (stereo not shown) [Compound 210]  human LPA1 (Homo sapiens)          < 6.00
